System: MDA-MB-468 breast
ASSAY NOTES: NCI-60 one-dose screen, 48 h
MEASUREMENT PARAMETERS: 10 µM unless noted
Procedure: Growth inhibition of the MDA-MB-468 human Breast tumor cell line is measured as a screen for anti-cancer activity. Cells are grown in 96 well plates and exposed to the test compound for 48 hours. Compounds are tested at a single concentration, which is 10^-5 M for most compounds. The reported endpoint is percent growth (GI% or GIPRCNT), where numbers from 0 - 100% represent growth inhibition, and numbers from -100% - 0 represent cell death. […]
The panel holds about 83,000 compounds, 20% with a hit somewhere; the sample as a whole holds those more often. Active and inactive are the calls of the source. The calls were made as follows: active = growth percent below 10; inactive = the rest.
// allowed return values: active, inactive

Could you kindly confirm the outcome this assay logged for CC(C)CC(CC1=CCC2CC1C2(C)C)C1=C(O)C(C)(C)C(=O)C(C)(C)C1=O (stereo not drawn) ?
active

Could you kindly confirm the outcome this assay logged for "O=C(/C=C\c1cccc([N+](=O)[O-])c1)/C=C/c1cccc([N+](=O)[O-])c1" ?
inactive

Could you kindly confirm the outcome this assay logged for "O=C1CCc2ccccc2N1" ?
inactive

Could you kindly confirm the outcome this assay logged for Oc1c(C(c2ccc(F)cc2)N2CCCCC2)ccc2cncnc12 (stereo not drawn) ?
active

Could you kindly confirm the outcome this assay logged for "O=C(CCCCCCCCC(=O)Nc1cccc(C2=NCCN2)c1)Nc1cccc(C2=NCCN2)c1" ?
inactive

Could you kindly confirm the outcome this assay logged for CCCN1CN2C(=O)N3CN(CCC)CN4C(=S)N(C1)C2C34 (stereo not drawn) ?
inactive

Could you kindly confirm the outcome this assay logged for "CCOC(=O)C1=C(C)C(Cl)=N/C1=C\c1[nH]c(Cl)c(C)c1C(=O)OCC" ?
inactive

Could you kindly confirm the outcome this assay logged for "Cn1c(=O)c2c(ncn2CC[N+](C)(C)C)n(C)c1=O" ?
inactive

Could you kindly confirm the outcome this assay logged for "O=C1SCN(Cc2ccccc2)CN1Cc1ccccc1" ?
inactive

Could you kindly confirm the outcome this assay logged for "FC(F)(F)c1ccc(-c2cnc(Cl)nc2NC2CCCCCC2)cc1" ?
active

Could you kindly confirm the outcome this assay logged for "Cc1cc(C)c(S(=O)(=O)Oc2ccccc2[N+](=O)[O-])c(C)c1" ?
active

Could you kindly confirm the outcome this assay logged for "CNC1=CC(=O)c2c(C(=O)OC)c(C)[n+]([O-])c(C)c2C1=O" ?
inactive

Could you kindly confirm the outcome this assay logged for C#Cc1cccc(NC(=O)C2CCCN(C(=O)CCl)C2)c1 (stereo not drawn) ?
inactive

Could you kindly confirm the outcome this assay logged for "CC(C)c1ncc([N+](=O)[O-])n1C" ?
inactive

Could you kindly confirm the outcome this assay logged for "O=C1NC(=O)/C(=C\c2ccccc2)C2=C1CCCC2" ?
inactive

Could you kindly confirm the outcome this assay logged for "O=C(c1ccc(O)c(Br)c1)c1ccc(O)c(Br)c1" ?
inactive

Could you kindly confirm the outcome this assay logged for "N=C(N)Sc1cccc[n+]1[O-]" ?
inactive

Could you kindly confirm the outcome this assay logged for "COc1ccc2c(CCCc3ccc(Cl)cc3Cl)c3[n+](cc2c1OC)CCc1cc2c(cc1-3)OCO2" ?
active

Could you kindly confirm the outcome this assay logged for "CCC(=O)N1C/C(=C/c2ccc(Br)cc2)C(=O)/C(=C/c2ccc(Br)cc2)C1" ?
active

Could you kindly confirm the outcome this assay logged for "c1n[nH]cc1-c1nc2ccc3[nH]ncc3c2c2c1CCCC2" ?
inactive

Could you kindly confirm the outcome this assay logged for "CCN(CC)CCC(=O)c1cccc2ccccc12" ?
inactive

Could you kindly confirm the outcome this assay logged for "COc1cc2c(cc1-c1c(C)noc1C)ncc1nc(C3CC3)n([C@H](C)COC(F)F)c12" ?
inactive

Could you kindly confirm the outcome this assay logged for "C#COc1cccc(Nc2ncnc3cc(NC(=O)[C@H](C)Cl)ccc23)c1" ?
active

Could you kindly confirm the outcome this assay logged for "O=C1Nc2ccc(Cl)cc2/C1=C/c1ccc(OCc2ccc(F)cc2)cc1" ?
inactive

Could you kindly confirm the outcome this assay logged for "O=C1Nc2ccccc2/C1=C/c1cccn1CCCCCn1c2ccccc2c(=O)c2ccccc21" ?
inactive

Could you kindly confirm the outcome this assay logged for "CC(C)C[C@H](NC(=O)[C@@H](Cc1ccccc1)n1ccc(Nc2ccccc2)cc1=O)B(O)O" ?
active

Could you kindly confirm the outcome this assay logged for "C/C(=N\Nc1ccc(Cl)cn1)c1ccccn1" ?
active

Could you kindly confirm the outcome this assay logged for "COc1cc(/C(C#N)=C/c2nc3c(N4CCOCC4)nc(Cl)nc3n2C)cc(OC)c1OC" ?
inactive

Could you kindly confirm the outcome this assay logged for "CN1C(=O)/C(=C\c2nc([P+](c3ccccc3)(c3ccccc3)c3ccccc3)c(N3CCOCC3)o2)SC1=S" ?
inactive

Could you kindly confirm the outcome this assay logged for "C#CCOc1ccc2ncnc(Nc3cccc(NC(=O)C=C)c3)c2c1" ?
inactive

Could you kindly confirm the outcome this assay logged for N#CC1(C#N)C2=C(CCCC2)NC(c2c(F)cccc2Cl)C1(C#N)C#N (stereo not drawn) ?
inactive

Could you kindly confirm the outcome this assay logged for O=C1C2C3C=CC(O3)C2C(=O)N1Nc1ccccc1 (stereo not drawn) ?
inactive

Could you kindly confirm the outcome this assay logged for "COC(=O)c1ccc(C(C)C)cc1" ?
inactive

Could you kindly confirm the outcome this assay logged for "c1ccc(Cc2nn3cc(-c4ccccc4)nc3s2)cc1" ?
inactive

Could you kindly confirm the outcome this assay logged for "Cc1cc(Nc2cccc(F)c2)nc(NCc2ccccc2)n1" ?
inactive

Could you kindly confirm the outcome this assay logged for OCCCC1CCN(C(Cc2ccccc2)c2ccccc2)CC1 (stereo not drawn) ?
inactive

Could you kindly confirm the outcome this assay logged for "Cc1ccc(-c2nn(-c3ccccc3)cc2/C=C/C(=O)c2ccc(NC(=O)CCCCCCC(=O)NO)cc2)cc1" ?
inactive

Could you kindly confirm the outcome this assay logged for O=C(Nc1ccc(Cl)cc1)N1NC(c2ccc(Cl)cc2)C=C1c1ccccc1 (stereo not drawn) ?
inactive
